Where do the numbers come from? From PubChem BioAssay (NCI).

system: OVCAR-3 ovarian; assay: NCI-60 one-dose screen, 48 h; conditions: 10 µM unless noted
About 83,000 compounds went through this panel and 20% of them were active in at least one assay; those are over-represented in the sample as a whole. Calls of active or inactive are those of the source. Rule for the calls: active = growth percent below 10; inactive = the rest.
Allowed answers: active, inactive

I'd appreciate the recorded outcome for COc1ccc2c(c1)c(-c1cc(N)n3nc(-c4cn(C)c5ccc(OC)cc45)cc3n1)cn2C from this test.
inactive

I'd appreciate the recorded outcome for CCOP(=O)(OCC)OC[C@]12CCC(C)(C)C=C1[C@H]1CC[C@@H]3[C@@]4(C)CC[C@H](OP(=O)(OCC)OCC)C(C)(C)[C@@H]4CC[C@@]3(C)[C@]1(C)CC2 from this test.
active

I'd appreciate the recorded outcome for CCN1CCN(Cc2ccc(C(=O)Nc3ccc(C)c(Oc4ccc(-c5[nH]nc6ncnc(N)c56)cc4)c3)cc2C(F)(F)F)CC1 from this test.
inactive

---

system: HT29 colon; experiment: NCI-60 one-dose screen, 48 h (100 = growth as untreated, 0 = no growth, -100 = all killed); details: 10 µM unless noted
This is part of a sample that, as a whole, favours compounds with a hit. Of some 83,000 tested, about 20% had one in any assay.
Entry flag: Criterion met if growth reaches 60%; Criterion not met if it does not.

Known results for compounds:
| compound | classification |
| --- | --- |
| O=C1Nc2ccccc2/C1=C/c1ccc(COCC2CO2)n1-c1ccc(O)cc1 (configuration not stated) | Criterion met |
| O=C(CN1CCN(c2cc(=O)n(-c3ccccc3)c3ccccc23)CC1)Nc1cccc(C(F)(F)F)c1 | Criterion met |
| NC(N)=Nc1ccc(Nc2cccc(Oc3ccc(Cl)c(C(F)(F)F)c3)c2)cn1 | Criterion not met |
| CC1(C)CC[C@]2(C(=O)N3CCOCC3)CC[C@]3(C)C(=CC[C@@H]4[C@@]5(C)C/C(=C/c6ccccn6)C(=O)C(C)(C)[C@@H]5CC[C@]43C)[C@@H]2C1 | Criterion not met |
| Cc1ccc(NC(=O)c2ccc(CN3CCOCC3)c(C(F)(F)F)c2)cc1Oc1ccc(-c2[nH]nc3ncnc(N)c23)cc1 | Criterion not met |

Does the compound COc1cc2nc(Cl)nc(Nc3cccc(C4=Nc5c(N)nc(N)nc5NC(c5ccc6c(c5)OCO6)C4)c3)c2cc1OC (configuration not stated) have recorded growth that is 60% or more?
Criterion met

---

test system: NCI/ADR-RES ovarian; assay: NCI-60 one-dose screen, 48 h; conditions: 10 µM unless noted
The panel holds about 83,000 compounds, 20% with a hit somewhere; the sample as a whole holds those more often. Calls of active or inactive are those of the source. Rule for the calls: active = growth percent below 10; inactive = the rest.
Allowed answers: Yes for active, No for inactive

Known results for molecules:
| molecule | classification |
| --- | --- |
| Oc1ccc(CSc2nnc(-c3ccc(Cl)cc3)n2-c2ccccc2)c2cccnc12 | Yes |
| CC(C)(C)c1ccc(C(=O)Nc2sc3c(c2C(N)=O)CC/C(=N\O)C3)cc1 | No |
| Clc1nc2ccccc2nc1-c1nnc(C2CCCCC2)o1 | No |

I'd appreciate the recorded outcome for CC(C)(C)c1ccc(C(=O)Nc2sc3c(c2C(N)=O)CCC(O)C3)cc1 (centres undefined) from this test.
No

---

Please go through the items and note down their growth.
system: MDA-MB-231 breast; assay: NCI-60 one-dose screen, 48 h (100 = growth as untreated, 0 = no growth, -100 = all killed); conditions: 10 µM unless noted
Compounds without any hit were thinned out: in the full panel of roughly 83,000, 20% have a hit.
Answers are plain numbers, in %.

| compound | reported_value |
| --- | --- |
| O=C(CNc1nc(-c2cccc([N+](=O)[O-])c2)cs1)Nc1cccc(Cl)c1 | 101 |
| Cc1ccc(NC(=S)NNC(=S)Nc2ccc(C)cc2)cc1 | 106 |
| CS(=O)(=O)Nc1cc(-c2ccc3ncc(C#N)c(NCc4ccccc4O)c3c2)cnc1Cl | 6.73 |

For every listed record, write down its growth.
1. CCn1c(SCC(=O)Nc2cccc(C(=O)/C=C/c3ccccc3Cl)c2)nc2ccccc2c1=O
2. C=CCn1c(SCC(=O)Nc2ccc(C(=O)/C=C/c3ccc(C)cc3)cc2)nnc1-c1c[nH]c2ccccc12

1. 87.1
2. 89

For every listed record, write down its growth.
1. COC(=O)C[Se]C(=O)Cc1c(C)n(C(=O)c2ccc(Cl)cc2)c2ccc(OC)cc12
2. CC(C)(O)c1cncc(-c2ccc3ncnc(NCc4ccccc4)c3c2)c1
3. CN1CCN(c2nc(-c3csc(-c4ccccc4)n3)cc3ccccc23)CC1
4. O=C(CN1CCN(c2cc(=O)n(-c3ccccc3)c3ccccc23)CC1)Nc1cccc(C(F)(F)F)c1
5. COc1c(N2CC3CCCNC3C2)c(F)cc2c(=O)c(C(=O)N/N=C/c3ccccc3)cn(C3CC3)c12 (stereo not given)

[30.9, 72.9, 38.4, 68.7, 94.9]

---

system: SK-MEL-2 melanoma; assay: NCI-60 one-dose screen, 48 h; settings: 10 µM unless noted
This is part of a sample that, as a whole, favours compounds with a hit. Of some 83,000 tested, about 20% had one in any assay. Active and inactive are the calls of the source. The calls were made as follows: active = growth percent below 10; inactive = the rest.
Allowed answers: Yes for active, No for inactive

| molecule | classification |
| --- | --- |
| O=c1[nH]c(Sc2sc3ccc(Cl)cc3c2CBr)nc(=S)[nH]1 | Yes |

I'd appreciate the recorded outcome for O=C(Nc1ccc2c(ccn2Cc2ccccn2)c1)c1ccnnc1 from this test.
No

I'd appreciate the recorded outcome for CN(C)C(=O)c1cc(-c2ccc3ncnc(NCc4ccccc4)c3c2)cnc1N from this test.
No

I'd appreciate the recorded outcome for CC1(C)CC[C@]2(C(=O)N3CCOCC3)CC[C@]3(C)C(=CC[C@@H]4[C@@]5(C)C/C(=C/c6ccccn6)C(=O)C(C)(C)[C@@H]5CC[C@]43C)[C@@H]2C1 from this test.
No

I'd appreciate the recorded outcome for CC1(C)CC[C@]23CC[C@]4(C)[C@H](CC[C@@H]5[C@@]6(C)CCCN(CO)C(C)(C)[C@@H]6CC[C@]54C)[C@H]2[C@H]1OC3 from this test.
No

I'd appreciate the recorded outcome for C#C[C@]1(O)CC[C@H]2[C@@H]3CC=C4c5sc(-c6ccc(C)cc6)nc5CC[C@]4(C)[C@H]3CC[C@@]21C from this test.
Yes

I'd appreciate the recorded outcome for Cn1cc(-c2nc(N)nnc2-c2c[nH]c3ccc(Br)cc23)c2cc(Br)ccc21 from this test.
No

I'd appreciate the recorded outcome for COc1ccc([C@H]2[C@H](O)C(=O)N2c2cc(OC)c(OC)c(OC)c2)cc1F from this test.
Yes

I'd appreciate the recorded outcome for N#Cc1c(-c2cccs2)cc(-c2cnccn2)nc1SCC(=O)Nc1ccc(Br)cc1 from this test.
No

---

tested on: CCRF-CEM leukemia; test: NCI-60 one-dose screen, 48 h; conditions: 10 µM unless noted
This is part of a sample that, as a whole, favours compounds with a hit. Of some 83,000 tested, about 20% had one in any assay. The source made the active and inactive calls. The calls were made as follows: active = growth percent below 10; inactive = the rest.
Allowed answers: class 1 = active, class 0 = inactive

| compound | classification |
| --- | --- |
| CCOC(=O)c1c(Nc2ccccc2)nn2c(-c3ccc(Cl)cc3)ccnc12 | class 0 |

I'd appreciate the recorded outcome for O=C(c1ccc(O)cc1)[C@@H]1CN[C@@]2(C(=O)Nc3ccccc32)[C@H]1c1ccc(F)cc1 from this test.
class 0

I'd appreciate the recorded outcome for O=S(=O)(NCCCNc1nccc(-c2[nH]c(-c3ccccc3)nc2-c2ccc(Cl)c(O)c2)n1)c1cccc(F)c1 from this test.
class 0

I'd appreciate the recorded outcome for C#CC(=O)N(c1ccc(OC)cc1OC)C(C(=O)NCC(=O)OCC)c1cccs1 (stereo unspecified) from this test.
class 1

I'd appreciate the recorded outcome for O=S(=O)(NCCCNc1nccc(-c2[nH]c(-c3ccccc3)nc2-c2ccc(Cl)c(O)c2)n1)c1cccc2ccccc12 from this test.
class 0

I'd appreciate the recorded outcome for O=C1Nc2ccccc2/C1=C/c1ccc(COCC2CO2)n1-c1ccc(O)cc1 (stereo unspecified) from this test.
class 0

---

tested on: TK-10 renal; test: NCI-60 one-dose screen, 48 h (100 = growth as untreated, 0 = no growth, -100 = all killed); settings: 10 µM unless noted
This is part of a sample that, as a whole, favours compounds with a hit. Of some 83,000 tested, about 20% had one in any assay.
Please go through the items and note down their growth.
Give bare numbers, in %.

Use the examples below as a reference point.
| compound | growth / % |
| --- | --- |
| CCOC(=O)c1c(N)c(C#N)cn1-c1cc(OC)c(OC)c(OC)c1 | 99.5 |
| Cc1ccc(N2C(=O)/C(=C/C=C/c3ccco3)SC2=S)cc1 | 117 |
| O=C(NNc1nc2cc(F)ccc2n2c(CN3CC4CNCC4C3)ccc12)c1cnccn1 (centres undefined) | 22.4 |

Which growth reading was recorded for the compound O=C(Nc1ccc2c(ccn2Cc2ccccn2)c1)c1ccnnc1 ?
60.2
